- Test system: BxPC3 (pancreatic cancer)
- Assay Info: Growth inhibition, MTT colorimetric assay, BxPC3
- Type: cell-based, human
- Measurement Context: Homo sapiens, BXPC-3, 72 h; carcinoma; 3 days with drug; means of six values; unit inferred; read-out: IC50 BxPC3

{"Compound": "Oc1ccc(CN(Cc2ccc(C(F)(F)F)cc2)Cc2ccc(O)c3ncccc23)c2cccnc12", "IC50 (µM)": 4.3}
{"Compound": "Oc1ccc(CN(Cc2ccccc2)Cc2ccc(O)c3ncccc23)c2cccnc12", "IC50 (µM)": 7.44}
{"Compound": "Oc1ccc(CN(Cc2cccc(I)c2)Cc2ccc(O)c3ncccc23)c2cccnc12", "IC50 (µM)": 3.81}
{"Compound": "O=C(O)C1CCC(CN(Cc2ccc(O)c3ncccc23)Cc2ccc(O)c3ncccc23)CC1 (centres unmarked)", "IC50 (µM)": 4.34}
{"Compound": "Oc1ccc(CN(Cc2cccc(C(F)(F)F)c2)Cc2ccc(O)c3ncccc23)c2cccnc12", "IC50 (µM)": 0.167}
